- Tested Target: T1, human PD-L1-his tag protein (human, UniProt Q9NZQ7 19-238)
- T1 construct: also called human PD-L1-His protein; recombinant PD-L1 protein; not shown: his tag
- T1 sequence (Q9NZQ7 19-238 limits assumed): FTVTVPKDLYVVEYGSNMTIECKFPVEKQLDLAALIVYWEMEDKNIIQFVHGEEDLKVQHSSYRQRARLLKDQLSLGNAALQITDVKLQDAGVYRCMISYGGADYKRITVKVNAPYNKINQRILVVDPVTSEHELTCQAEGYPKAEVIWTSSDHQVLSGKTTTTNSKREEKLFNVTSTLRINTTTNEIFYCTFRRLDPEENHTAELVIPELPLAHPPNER
- Test: SPR (Biacore), affinity ranking, PDL1-His
Consider the following binders and their measured koff readings.
Numeric only. Scale: s⁻¹

# koff (binder: Hu67F3G7-19 (antibody, V domains shown, humanized) VH: EVQLVQSGAEVKKPGASVKVSCKASGYIFTDFWVSWVRQAPGQGLEWIGEIYPNSGVSRYNEKFKGRVTMTVDKSISTAYMELSRLRSDDTAVYYCARYFGYTYWFGYWGQGTLVTVSS VL: DTVLTQSPSLSASVGDRVTITCRASKSVSTYMHWYQQKPGKQPKLLIYSASHLESGVPSRFSGSGSGTDFTLTISSLQPEDFATYYCQQSNELPVTFGGGTKVEIK ) is 0.000107

Record Hu89C10H8-4 (antibody, V domains shown, humanized) VH: EVQLVESGGGLVKPGGSLRLSCAASGFTFSNYWMTWIRQAPGKGLEWVASITNTGSSTFYPDSVKGRFTISRDNAKSSLYLQMNSLRAEDTAVYYCTRDTTIAPFDYWGQGTMVTVSS VL: DIQMTQSPSSLSASVGDRVTITCKASQNLNEYLNWYQQKPGKAPKRLIYKTNTLQAGVPSRFSGSGSGTDYTLTISSLQPEDFATYYCSQYNSGNTFGQGTKLEIK , field koff: 5.94e-05
